- EXPERIMENTAL_TARGET: T1, biotinylated human DLL3 protein expressed as a human IgG1 fusion protein (human, UniProt Q9NYJ7 27-492, limits assumed, biotinylated)
- T1 sequence: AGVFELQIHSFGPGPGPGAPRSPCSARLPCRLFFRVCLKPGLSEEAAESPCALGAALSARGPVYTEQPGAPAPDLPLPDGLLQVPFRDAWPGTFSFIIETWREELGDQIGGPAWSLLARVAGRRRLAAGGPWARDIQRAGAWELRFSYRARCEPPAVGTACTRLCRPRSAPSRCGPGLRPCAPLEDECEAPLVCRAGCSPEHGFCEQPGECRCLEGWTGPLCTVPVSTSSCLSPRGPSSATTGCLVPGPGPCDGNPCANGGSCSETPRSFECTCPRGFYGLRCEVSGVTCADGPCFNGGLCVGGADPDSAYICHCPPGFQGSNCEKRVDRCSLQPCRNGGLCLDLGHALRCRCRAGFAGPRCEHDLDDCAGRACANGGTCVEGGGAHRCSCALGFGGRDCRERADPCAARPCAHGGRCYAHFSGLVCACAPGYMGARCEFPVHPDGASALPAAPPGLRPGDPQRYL
- EXPERIMENTAL_PROTOCOL: Octet BLI, single 50 nM
Classify: yes when Kd is strictly less than 9 nM; no when Kd is not.

BINDER	CAT
1A06 anti-DLL3 trispecific protein (other, not shown: linker 1808, anti-albumin sdAb, linker 1808, anti-CD3 fragment, His6 1819) EVQLVESGGGLVQPGGSLTLSCVASGSTSSINAMGWYRRAPGKQRELAAGISSDGSSVYADSVKGRFTISRDNAKNSVYLQMNSLRAEDTAVYYCYYFRTVSGSSKRYWGQGTLVTVSS	yes

IN: Quick check: Kd of 1B04 anti-DLL3 trispecific protein (other, not shown: linker 1808, anti-albumin sdAb, linker 1808, anti-CD3 fragment, His6 1819) EVQLVESGGGLVQPGGSLTLSCVASGTTSSINAMGWYRRAPGKQRELVAGISSDGSLVYADSVKGRFTISRDNAKNSVYLQMNSLRAEDTAVYYCYYFRIVRGSSMRYWGQGTLVTVSS under 9 nM?
OUT: no

IN: Quick check: Kd of 1D09 anti-DLL3 trispecific protein (other, not shown: linker 1808, anti-albumin sdAb, linker 1808, anti-CD3 fragment, His6 1819) EVQLVESGGGLVQPGGSLTLSCVASGSTSSINAMAWYRRAPGKQRELVAGISSDGSKVYTDSVKGRFTISRDNAKNSVYLQMNSLRAEDTAVYYCYYFRTISGSSMRYWGQGTLVTVSS under 9 nM?
OUT: yes

IN: Quick check: Kd of 1E08 anti-DLL3 trispecific protein (other, not shown: linker 1808, anti-albumin sdAb, linker 1808, anti-CD3 fragment, His6 1819) EVQLVESGGGLVQPGGSLTLSCVASGKTSSINAMGWYRRAPGKQRELVAGISSDGSKVIADSVKGRFTISRDNAKNSVYLQMNSLRAEDTAVYYCYYFRTVLGSSMRYWGQGTLVTVSS under 9 nM?
OUT: no

IN: Quick check: Kd of 3D03 anti-DLL3 trispecific protein (other, not shown: linker 1808, anti-albumin sdAb, linker 1808, anti-CD3 fragment, His6 1819) EVQLVESGGGLVQPGGSLTLSCAASGSSVVFLSMAWYRQAPGKKRELVAGISADGSMDYIDSVKGRFTISRDNAKNSVYLQMNSLRAEDTAVYYCYAYRWRTRYTYWGQGTLVTVSS under 9 nM?
OUT: no

All figures here come from patent US20240141072A1.
